Assay: Oral bioavailability in Sprague-Dawley rat at 4.3 mg/kg by LC-MS/MS analysis
Type: ADME, organism-based
Settings: in vivo
ASSAY READOUT: bioavailability (%)
Give the number; % is assumed, so skip it.

Q: Bench note: what bioavailability did Cc1cccc(CC(=O)N2CCc3c2ccc(-c2cn(C)c4ncnc(N)c24)c3F)n1 show?
Ans: 100

----------
Test: AUC (0 to infinity) in CD1 mouse at 2 mg/kg, iv by LC-MS/MS analysis
Type: ADME, organism-based
Parameters: time infinity, dose 2 mg/kg, route intravenous
Conditions: plasma
ASSAY READOUT: AUC(0-inf) (ng·h/mL)
Give the number; ng·h/mL is assumed, so skip it.

Q: Report AUC(0-inf) for Cc1cccc(CC(=O)N2CCc3c2ccc(-c2cn(C)c4ncnc(N)c24)c3F)n1 please.
Ans: 3270

----------
Experiment: Blood clearance in beagle dog at 2.9 mg/kg, iv by LC-MS/MS analysis
Assay type: ADME, organism-based, Canis lupus familiaris
Parameters: dose 2.9 mg/kg, route intravenous
Conditions: whole blood
ASSAY READOUT: clearance (mL/min/kg)
State the answer as a number, implicitly in mL/min/kg.

Q: // lookup clearance for Cc1cccc(CC(=O)N2CCc3c2ccc(-c2cn(C)c4ncnc(N)c24)c3F)n1
Ans: 15.5

----------
pIC50: −log10 of the molar value.
As an illustration, consider measured pIC50 for molecules on Cytochrome P450 2C19 (Homo sapiens).
Sequence (P33261 whole entry): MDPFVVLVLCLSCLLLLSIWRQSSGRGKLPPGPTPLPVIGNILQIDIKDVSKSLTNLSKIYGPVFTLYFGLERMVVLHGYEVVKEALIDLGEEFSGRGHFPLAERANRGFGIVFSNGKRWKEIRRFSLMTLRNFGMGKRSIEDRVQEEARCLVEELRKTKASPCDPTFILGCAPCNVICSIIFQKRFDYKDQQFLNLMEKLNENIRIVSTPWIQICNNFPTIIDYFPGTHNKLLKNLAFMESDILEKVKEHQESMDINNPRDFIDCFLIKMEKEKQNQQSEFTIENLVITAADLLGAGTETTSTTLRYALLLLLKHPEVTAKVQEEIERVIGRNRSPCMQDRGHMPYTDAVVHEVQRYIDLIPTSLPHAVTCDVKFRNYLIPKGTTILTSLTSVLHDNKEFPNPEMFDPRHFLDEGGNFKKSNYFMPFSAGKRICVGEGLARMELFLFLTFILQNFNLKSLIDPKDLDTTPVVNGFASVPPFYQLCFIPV

For orientation, consider the following solved cases.
# RECORD SMILES, MEASURED ON, ASSAY READOUT, MEAS VALUE
data = [
    ("Cc1cccc(CC(=O)N2CCc3c2ccc(-c2cn(C)c4ncnc(N)c24)c3F)n1", "Cytochrome P450 2C19 (Homo sapiens)", "pIC50", "< 4.60"),
    ("Cc1cc(C)n(CC(=O)N2CCc3c2ccc(-c2cn(C)c4ncnc(N)c24)c3F)n1", "Cytochrome P450 2C19 (Homo sapiens)", "pIC50", "< 4.60"),
]

Shifting focus to the molecule that follows.
Q: Recorded pIC50 for Cn1cc(-c2ccc3c(c2)CCN3C(=O)Cc2cccc(C(F)(F)F)c2)c2c(N)ncnc21 with Cytochrome P450 2C19 (Homo sapiens), please?
Ans: 5.15

----------
Test: Half life in beagle dog at 2.9 mg/kg, iv by LC-MS/MS analysis
Assay type: ADME, organism-based, Canis lupus familiaris
Set-up: dose 2.9 mg/kg, route intravenous
Details: in vivo
ASSAY READOUT: half-life (h)
Number only, in h; omit the unit.

Q: // returns reported half-life for input Cc1cccc(CC(=O)N2CCc3c2ccc(-c2cn(C)c4ncnc(N)c24)c3F)n1
Ans: 3.1

----------
Listed here are compounds together with their documented pIC50.
Molecular target: Eukaryotic translation initiation factor 2-alpha kinase 3 (Homo sapiens)
Assay: Inhibition of thapsigargin-induced autophosphorylation of PERK in human A549 cells preincubated for 1 hr followed by thapsigargin-induction measured after 1 hr by Western blotting analysis
Assay type: cell-based
The quantity pIC50 is defined as the negative base-10 logarithm of the molar concentration.

# RECORD SMILES, pIC50
measured = [
    ("Cn1cc(-c2ccc3c(c2)CCN3C(=O)Cc2cccc(C(F)(F)F)n2)c2c(N)ncnc21", 7.52),
    ("Cc1cccc(CC(=O)N2CCc3cc(-c4cn(C)c5ncnc(N)c45)ccc32)n1", 7.00),
]

Q: Form field: reported pIC50 of Cc1cc(C)n(CC(=O)N2CCc3c2ccc(-c2cn(C)c4ncnc(N)c24)c3F)n1
Ans: 7.52

Q: Consider the compound shown here: Cc1cccc(CC(=O)N2CCc3c2ccc(-c2cn(C)c4ncnc(N)c24)c3F)n1 What is its recorded pIC50?
Ans: 7.52

Q: Any idea what its pIC50 is? The compound is Cc1cc(C)n(CC(=O)N2CCc3cc(-c4cn(C)c5ncnc(N)c45)ccc32)n1
Ans: 7.00

----------
Molecular target: UniProtKB Q9NZJ5
Sequence (Q9NZJ5 whole entry): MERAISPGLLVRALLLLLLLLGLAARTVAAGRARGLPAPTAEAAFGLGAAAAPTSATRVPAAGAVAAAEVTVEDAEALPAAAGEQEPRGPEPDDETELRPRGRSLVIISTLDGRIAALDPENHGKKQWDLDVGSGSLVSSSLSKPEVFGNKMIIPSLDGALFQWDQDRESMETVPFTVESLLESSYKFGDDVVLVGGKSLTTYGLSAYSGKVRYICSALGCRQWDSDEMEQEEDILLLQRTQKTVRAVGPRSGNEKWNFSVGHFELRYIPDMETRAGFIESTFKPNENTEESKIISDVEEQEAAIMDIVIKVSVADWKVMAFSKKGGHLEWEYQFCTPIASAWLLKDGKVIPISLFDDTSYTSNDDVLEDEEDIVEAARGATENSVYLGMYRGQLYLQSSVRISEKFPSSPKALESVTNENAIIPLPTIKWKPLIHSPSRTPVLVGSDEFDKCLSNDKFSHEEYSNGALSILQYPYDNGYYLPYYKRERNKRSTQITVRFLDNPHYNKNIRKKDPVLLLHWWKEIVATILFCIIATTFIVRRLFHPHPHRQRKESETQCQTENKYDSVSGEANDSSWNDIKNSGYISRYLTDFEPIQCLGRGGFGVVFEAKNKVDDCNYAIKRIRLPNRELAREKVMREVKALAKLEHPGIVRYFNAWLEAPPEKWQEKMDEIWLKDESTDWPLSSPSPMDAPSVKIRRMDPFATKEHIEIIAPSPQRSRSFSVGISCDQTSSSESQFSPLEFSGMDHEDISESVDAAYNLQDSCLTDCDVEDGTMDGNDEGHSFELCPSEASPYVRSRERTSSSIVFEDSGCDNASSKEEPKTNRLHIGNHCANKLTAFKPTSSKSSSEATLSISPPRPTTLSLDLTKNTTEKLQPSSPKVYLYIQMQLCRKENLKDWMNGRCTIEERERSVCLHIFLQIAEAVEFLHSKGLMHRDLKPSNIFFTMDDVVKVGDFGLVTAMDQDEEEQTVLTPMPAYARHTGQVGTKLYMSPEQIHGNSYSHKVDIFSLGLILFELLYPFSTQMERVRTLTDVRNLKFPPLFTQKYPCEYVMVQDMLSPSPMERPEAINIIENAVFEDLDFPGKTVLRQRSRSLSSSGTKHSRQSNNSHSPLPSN
Experiment: Inhibition of GST-tagged PERK cytoplasmic domain (536 to 1116) (unknown origin) assessed as biotinylated His6-tagged EIF2alpha phosphorylation preincubated for 30 mins followed by ATP and eIF2alpha addition measured after 1 hr by HTRF assay
Labelling: IC50 reported below 2 nM becomes 1; at or above becomes 0.

Check out these entries, answers already filled in.
# RECORD SMILES, ASSIGNED CLASS
measured = [
    ("Cn1cc(-c2ccc3c(c2)CCN3C(=O)Cc2cccc(C(F)(F)F)n2)c2c(N)ncnc21", 1),
    ("Cc1ccn(CC(=O)N2CCc3cc(-c4cn(C)c5ncnc(N)c45)ccc32)n1", 0),
    ("Cc1cc(C)n(CC(=O)N2CCc3cc(-c4cn(C)c5ncnc(N)c45)ccc32)n1", 1),
    ("Cn1cc(-c2ccc3c(c2)CCN3C(=O)Cc2ccncc2)c2c(N)ncnc21", 0),
    ("Cn1cc(-c2ccc3c(c2)CCN3C(=O)Cc2ccccn2)c2c(N)ncnc21", 0),
]

Q: State whether 2 nM exceeds IC50 recorded for Cn1cc(-c2ccc3c(c2)CCN3C(=O)Cc2cccnc2)c2c(N)ncnc21 .
Ans: 0

Q: Lab note: IC50 threshold 2 nM. Does this compound come in strictly under it? Cc1ccnn1CC(=O)N1CCc2cc(-c3cn(C)c4ncnc(N)c34)ccc21
Ans: 0

Q: Please check: IC50 for Cc1cc(C)n(CC(=O)N2CCc3c2ccc(-c2cn(C)c4ncnc(N)c24)c3F)n1 , strictly under 2 nM or not?
Ans: 0

Q: is_below(IC50, 2 nM) for Cc1cccc(CC(=O)N2CCc3c2ccc(-c2cn(C)c4ncnc(N)c24)c3F)n1 ?
Ans: 1

Q: Is 2 nM strictly greater than the compound's reported IC50? compound: Cn1cc(-c2ccc3c(c2F)CCN3C(=O)Cc2cccc(C(F)(F)F)n2)c2c(N)ncnc21
Ans: 1

Q: Quick check: IC50 of Cc1cccc(CC(=O)N2CCc3cc(-c4cn(C)c5ncnc(N)c45)ccc32)n1 under 2 nM?
Ans: 0

----------
Listing of recorded pIC50 by entry.
Target: Interferon-induced, double-stranded RNA-activated protein kinase (Homo sapiens, UniProt P19525)
Sequence (P19525 whole entry): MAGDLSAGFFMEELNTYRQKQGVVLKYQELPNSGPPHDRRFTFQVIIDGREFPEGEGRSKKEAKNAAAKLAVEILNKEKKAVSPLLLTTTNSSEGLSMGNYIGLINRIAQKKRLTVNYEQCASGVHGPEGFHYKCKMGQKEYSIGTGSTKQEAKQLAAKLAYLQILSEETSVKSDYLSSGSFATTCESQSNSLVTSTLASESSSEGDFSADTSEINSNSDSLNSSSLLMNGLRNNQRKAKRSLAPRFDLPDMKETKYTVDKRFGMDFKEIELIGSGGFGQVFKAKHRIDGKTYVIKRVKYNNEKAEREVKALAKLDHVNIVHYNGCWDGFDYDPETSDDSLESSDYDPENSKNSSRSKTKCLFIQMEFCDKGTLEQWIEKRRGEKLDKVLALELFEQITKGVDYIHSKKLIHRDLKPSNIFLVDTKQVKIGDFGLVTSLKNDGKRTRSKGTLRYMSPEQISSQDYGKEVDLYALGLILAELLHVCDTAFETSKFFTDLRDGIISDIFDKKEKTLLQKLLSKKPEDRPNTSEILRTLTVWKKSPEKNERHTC
Assay: Inhibition of PKR (unknown origin) assessed as EIF2AK2 phosphorylation
Note on units: pIC50 is unitless, being -log10 of a concentration expressed in mol/L.

Reference set (2 entries):
# RECORD SMILES, MEAS VALUE
data = [
    ("Cn1cc(-c2ccc3c(c2F)CCN3C(=O)Cc2cccc(C(F)(F)F)n2)c2c(N)ncnc21", 6.44),
    ("Cc1cccc(CC(=O)N2CCc3c2ccc(-c2cn(C)c4ncnc(N)c24)c3F)n1", 6.04),
]

Q: Which pIC50 reading was recorded for the compound Cc1cc(C)n(CC(=O)N2CCc3c2ccc(-c2cn(C)c4ncnc(N)c24)c3F)n1 ?
Ans: 7.00

Where these numbers come from: ChEMBL document CHEMBL2440009
